Experiment: Single dose escalation and multiple dosing pharmacokinetic study of LipoCol Forte
Conditions: human, plasma, oral, 2 LipoCol Forte capsules, MRT, healthy subjects, fed, single dose two LipoCol Forte capsules; mean ± SD, n = 14
Answer each item with its documented MRT.
Numbers only, in h.

CC[C@H](C)C(=O)O[C@H]1C[C@@H](C)C=C2C=C[C@H](C)[C@H](CC[C@@H]3C[C@@H](O)CC(=O)O3)[C@H]21 [Pure lovastatin, lovastatin, reference compound]: 5.27

Then this molecule:
Data request: For CC[C@H](C)C(=O)O[C@H]1C[C@@H](C)C=C2C=C[C@H](C)[C@H](CC[C@@H](O)C[C@@H](O)CC(=O)O)[C@H]21 , write its MRT.
Data returned: 6.43

====

Answer each item with its documented AUC(0-t).
Assay: Pharmacokinetic interaction between gemfibrozil and LipoCol Forte
Format: in vivo, human
Settings: human, plasma, oral, 1 LipoCol Forte capsule; read-out: AUC0–12
Answers are plain numbers, in ng·h/mL.

CC[C@H](C)C(=O)O[C@H]1C[C@@H](C)C=C2C=C[C@H](C)[C@H](CC[C@@H](O)C[C@@H](O)CC(=O)O)[C@H]21 [Lovastatin acid, lovastatin acid]: 31.1

Then this compound:
Data request: For CC[C@H](C)C(=O)O[C@H]1C[C@@H](C)C=C2C=C[C@H](C)[C@H](CC[C@@H]3C[C@@H](O)CC(=O)O3)[C@H]21 [Pure lovastatin, lovastatin, reference compound] , write its AUC(0-t).
Data returned: 5

====

Test: Pharmacokinetic interaction between gemfibrozil and LipoCol Forte
Format: in vivo, human
Details: human, plasma, oral, 1 LipoCol Forte capsule
Procedure: The volunteers were fasted overnight before dosing and a high fat breakfast or dinner was served 0.5 h after administration of gemfibrozil. […] Blood samples were prepared as described in the previous section (dose-escalation study).
Answer each item with its documented Vd/F.
Give bare numbers, in L.

CC[C@H](C)C(=O)O[C@H]1C[C@@H](C)C=C2C=C[C@H](C)[C@H](CC[C@@H](O)C[C@@H](O)CC(=O)O)[C@H]21: 644

Then this compound:
Data request: For CC[C@H](C)C(=O)O[C@H]1C[C@@H](C)C=C2C=C[C@H](C)[C@H](CC[C@@H]3C[C@@H](O)CC(=O)O3)[C@H]21 [Pure lovastatin, lovastatin, reference compound] , write its Vd/F.
Data returned: 4000

====

Target: CYP2D6 (Homo sapiens)
Sequence (P10635 whole entry): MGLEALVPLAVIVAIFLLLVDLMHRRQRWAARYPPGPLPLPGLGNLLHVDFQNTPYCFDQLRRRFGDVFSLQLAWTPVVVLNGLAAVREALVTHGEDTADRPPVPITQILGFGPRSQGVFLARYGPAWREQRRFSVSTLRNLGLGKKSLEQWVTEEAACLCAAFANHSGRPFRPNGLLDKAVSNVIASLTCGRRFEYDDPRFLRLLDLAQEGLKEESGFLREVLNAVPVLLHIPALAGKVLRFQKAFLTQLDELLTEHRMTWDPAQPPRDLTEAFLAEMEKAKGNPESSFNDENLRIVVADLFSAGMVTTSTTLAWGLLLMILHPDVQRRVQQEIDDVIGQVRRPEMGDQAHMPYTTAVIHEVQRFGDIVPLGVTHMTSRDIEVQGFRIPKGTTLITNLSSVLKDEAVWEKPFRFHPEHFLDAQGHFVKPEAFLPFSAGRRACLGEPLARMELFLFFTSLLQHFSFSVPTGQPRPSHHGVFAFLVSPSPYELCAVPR
Measurement Label: IC50

Data request: For CC[C@H](C)C(=O)O[C@H]1C[C@@H](C)C=C2C=C[C@H](C)[C@H](CC[C@@H]3C[C@@H](O)CC(=O)O3)[C@H]21 [Pure lovastatin, lovastatin, reference compound] , write its IC50.
Data returned: > 50 µM

====

Experiment: Single dose escalation and multiple dosing pharmacokinetic study of LipoCol Forte
Conditions: human, plasma, oral, 1 LipoCol Forte capsule, MRT, healthy subjects, fed, multiple doses one LipoCol Forte capsule BID for 5 days; mean ± SD, n = 14
Answer each item with its documented MRT.
One number for each entry, in h.

CC[C@H](C)C(=O)O[C@H]1C[C@@H](C)C=C2C=C[C@H](C)[C@H](CC[C@@H](O)C[C@@H](O)CC(=O)O)[C@H]21: 5.59

Then this compound:
Data request: For CC[C@H](C)C(=O)O[C@H]1C[C@@H](C)C=C2C=C[C@H](C)[C@H](CC[C@@H]3C[C@@H](O)CC(=O)O3)[C@H]21 [Pure lovastatin, lovastatin, reference compound] , write its MRT.
Data returned: 4.81

Where these numbers come from: paper PMC3513969
